tested system: Human CatS (Homo sapiens)
Construct: made in house; host or cells: Sf9 insect cells (baculovirus vector pFB+HT)
Sequence (P25774 115-331): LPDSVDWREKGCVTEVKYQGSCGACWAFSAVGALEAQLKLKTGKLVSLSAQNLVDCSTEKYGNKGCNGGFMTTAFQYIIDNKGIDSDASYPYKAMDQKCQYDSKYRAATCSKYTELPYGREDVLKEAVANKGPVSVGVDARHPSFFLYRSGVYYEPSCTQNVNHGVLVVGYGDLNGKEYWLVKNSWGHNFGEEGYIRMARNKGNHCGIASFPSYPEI
method description: CatS inhibition of hydrolysis of fluorescent substrate Z-Val-Val-Arg-AFC
Format: biochemical
applied conditions: apparent Ki, Morrison equation fit of initial rates; 10 μM Z-Val-Val-Arg-AFC, pH 5.0, 1.5 nM CatS; read-out: CatS Ki^app
pKi: −log10 of the molar value.
measurement label: pKi

Observe how each entry below is paired with its result.
1. C[C@@H](CN1CCc2cc(F)ccc21)NC(=O)c1cccc(-c2cc(-c3nn(CCCN4CCCC4)c4c3CN(S(C)(=O)=O)CC4)ccc2Cl)c1 [Example 9] | 6.86
2. CS(=O)(=O)N1CCc2c(c(-c3ccc(Cl)c(-c4cccc(C(=O)NCCN5CCc6cc(F)ccc65)c4)c3)nn2CCCN2CCCC2)C1 [Example 8] | 6.62
3. COc1ccc(NCCNC(=O)c2cccc(-c3cc(-c4nn(CCCN5CCCC5)c5c4CN(S(C)(=O)=O)CC5)ccc3Cl)c2)cc1Cl [Example 4] | 6.60
4. CN(C)S(=O)(=O)c1ccc2c(c1)N(CCNC(=O)c1cccc(-c3cc(-c4nn(CCCN5CCCC5)c5c4CN(S(C)(=O)=O)CC5)ccc3Cl)c1)CC2 [Example 11] | 6.87
5. CS(=O)(=O)N1CCc2c(c(-c3ccc(Cl)c(-c4cccc(C(=O)NCc5cccs5)c4)c3)nn2CCCN2CCCC2)C1 [Example 14] | 6.46
6. Cc1ccc2[nH]c(C(C)NC(=O)c3cccc(-c4cc(-c5nn(CCCN6CCC(N7CCCC7=O)CC6)c6c5CN(S(C)(=O)=O)CC6)ccc4Cl)c3)nc2c1 (stereo not drawn) [Example 35] | 6.91
7. CS(=O)(=O)N1CCc2c(c(-c3ccc(Cl)c(-c4cccc(C(=O)NCc5ncco5)c4)c3)nn2CCCN2CCC(N3CCCC3=O)CC2)C1 [Example 32] | 6.58
8. Cc1ccc(NCCNC(=O)c2cccc(-c3cc(-c4nn(CCCN5CCCC5)c5c4CN(S(C)(=O)=O)CC5)ccc3Cl)c2)cc1 [Example 2] | 6.46

[1] CS(=O)(=O)N1CCc2c(c(-c3ccc(Cl)c(-c4cccc(C(=O)NCc5nc(-c6ccccc6)cs5)c4)c3)nn2CCCN2CCCC2)C1 [Example 23]
[2] CC(=O)N1CCc2c(c(-c3ccc(Cl)c(-c4cccc(C(=O)N[C@@H](C)CN5CCc6cc(F)ccc65)c4)c3)nn2CCCN2CCCC2)C1 [Example 36]
Exercise: Returns: the argument ( 1 or 2 ) having the larger pKi. Selection: enter the item's label.
Solution: 1
(1: 7.05, 2: 6.13)

[A] CCC(NC(=O)c1cccc(-c2cc(-c3nn(CCCN4CCCC4)c4c3CN(S(C)(=O)=O)CC4)ccc2Cl)c1)c1nc2cc(C)ccc2[nH]1 (stereo not drawn) [Example 17]
[B] CC(=O)N1CCc2c(c(-c3ccc(Cl)c(-c4cccc(C(=O)NCCN5CCc6cc(C)ccc65)c4)c3)nn2CCCN2CCCC2)C1 [Example 40]
Exercise: Field: entry with larger pKi (options A / B ). Let me know the label of the one you choose.
Solution: A

[A] CC(=O)N1CCc2c(c(-c3ccc(Cl)c(-c4cccc(C(=O)N[C@@H](C)c5nc6cc(F)c(F)cc6[nH]5)c4)c3)nn2CCCN2CCCC2)C1 [Example 37]
[B] C[C@@H](NC(=O)c1cccc(-c2cc(-c3nn(CCCN4CCCC4)c4c3CN(S(C)(=O)=O)CC4)ccc2Cl)c1)c1nc(-c2ccccc2)cs1 [Example 24]
Exercise: Which value of pKi is greater, the one for A or the one for B ? Mark your selection by writing its label.
Solution: A

[1] CS(=O)(=O)N1CCc2c(c(-c3ccc(Cl)c(-c4cccc(C(=O)NCCNc5cccc6c5CCC6)c4)c3)nn2CCCN2CCCC2)C1 [Example 3]
[2] COc1ccc(NCCNC(=O)c2cccc(-c3cc(-c4nn(CCCN5CCC(O)C5)c5c4CN(S(C)(=O)=O)CC5)ccc3Cl)c2)cc1 (stereo not drawn) [Example 28]
Exercise: Which item exceeds the other in pKi, 1 or 2 ? Answer = label.
Solution: 2

[a] CS(=O)(=O)N1CCc2c(c(-c3ccc(Cl)c(-c4cccc(C(=O)NCc5nc6cc(Cl)ccc6[nH]5)c4)c3)nn2CCCN2CCCC2)C1 [Example 21]
[b] Cc1ccc(NCCNC(=O)c2cccc(-c3cc(-c4nn(CCCN5CCC(O)C5)c5c4CNCC5)ccc3Cl)c2)cc1C (stereo not drawn) [Example 42]
[c] COc1ccc(NCCNC(=O)c2cccc(-c3cc(-c4nn(CCCN5CCCC5)c5c4CN(S(C)(=O)=O)CC5)ccc3Cl)c2)cn1 [Example 6]
[d] CS(=O)(=O)N1CCc2c(c(-c3ccc(Cl)c(-c4cccc(C(=O)NCCN5CCc6ccc(F)cc65)c4)c3)nn2CCCN2CCC(N3CCCC3=O)CC2)C1 [Example 33]
Exercise: Ordering criterion: pKi; begin with the maximum. Give me the labels in the order the question wants.
Solution: b, a, d, c
(b: 7.38, a: 7.15, d: 6.79, c: 6.50)

[A] CC(C)c1ccc(NCCNC(=O)c2cccc(-c3cc(-c4nn(CCCN5CCC(O)C5)c5c4CNCC5)ccc3Cl)c2)cc1 (stereo not drawn) [Example 43]
[B] COc1ccc(NCCNC(=O)c2cccc(-c3cc(-c4nn(CCCN5CCC(N6CCCC6=O)CC5)c5c4CN(S(C)(=O)=O)CC5)ccc3Cl)c2)cc1 [Example 31]
Exercise: Which record shows the lower pKi: the first, A , or the second, B ? To answer, give the label that identifies your chosen option.
Solution: A
(A: 7.31, B: 7.56)
